The measurements presented in this section are drawn from patent US20240270821A1.

# study_system: hGLP-1R (Homo sapiens)
# Sequence (P43220 24-463): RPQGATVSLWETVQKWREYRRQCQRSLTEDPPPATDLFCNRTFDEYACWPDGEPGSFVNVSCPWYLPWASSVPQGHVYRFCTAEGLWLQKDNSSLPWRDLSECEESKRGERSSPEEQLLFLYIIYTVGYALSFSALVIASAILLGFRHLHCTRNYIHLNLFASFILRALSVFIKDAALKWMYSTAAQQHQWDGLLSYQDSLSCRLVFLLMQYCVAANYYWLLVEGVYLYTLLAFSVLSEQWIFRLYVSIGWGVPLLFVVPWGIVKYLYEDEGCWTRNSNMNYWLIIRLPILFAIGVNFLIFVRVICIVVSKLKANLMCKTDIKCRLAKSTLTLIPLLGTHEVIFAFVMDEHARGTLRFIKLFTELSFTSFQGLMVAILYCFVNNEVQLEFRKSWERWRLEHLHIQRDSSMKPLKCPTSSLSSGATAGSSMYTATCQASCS
# method_description: Functional cAMP activity in the presence of 1% HSA
# Type: cell-based
# test_conditions: read-out: cAMP Rel EC50, hGLP-1R
Starred links: 1 amine or outer side, 2 acyl side, 3 side chain; linkers in the order of their positions; H or OH if unused. Non-standard residues stand in square brackets, D forms with d. Groups on a side chain read outwards from the residue. *: point of attachment. C18 diacid = O=C(O)CCCCCCCCCCCCCCCCC(=O)*; αMePhe(2-F) = C[C@](N)(Cc1ccccc1F)C(=O)O; γGlu = O=C(O)[C@H](CCC(=O)[*:2])N[*:1]; αMe4Pal = C[C@](N)(Cc1ccncc1)C(=O)O; αMeY = C[C@](N)(Cc1ccc(O)cc1)C(=O)O; 4Pal = N[C@@H](Cc1ccncc1)C(=O)O; αMeL = CC(C)C[C@](C)(N)C(=O)O; αMeS = C[C@](N)(CO)C(=O)O; Orn = NCCC[C@H](N)C(=O)O; AEEA = NCCOCCOCC(=O)O; Aib = CC(C)(N)C(=O)O
API: label(entry) gives rule met if the entry's EC50 is strictly smaller than 200 nM; on equality or larger values it gives rule not met.

q: Item H-Y[Aib]QGTFTSD[4Pal]SQ[αMeL]LD[Orn]K([AEEA-γGlu-C18 diacid])AQ[αMe4Pal]AFIE[αMeY]LIE[Aib]GPSSGAPPPSGSEE-NH2 [Example 1108] : EC50 beneath 200 nM, strictly?
a: rule met

q: And the next one, H-Y[Aib]QGTFTSD[4Pal]SQ[αMeL]LDKK([AEEA-γGlu-C18 diacid])AQ[αMe4Pal]AFIE[αMe4Pal]LIE[Aib]GPSSGAPPPSGTGE-NH2 [Example 1117] ?
a: rule not met

q: And the next one, H-Y[Aib]QGT[αMePhe(2-F)]TSD[4Pal][αMeS]I[αMeL]LD[Orn]K([γGlu-γGlu-C18 diacid])AQ[Aib]QFI[dE][αMeY]LQEGGPSSGEPPPEGTGE-NH2 [Example 529] ?
a: rule met

q: And the next one, H-Y[Aib]QGTFTSDFS[Orn][αMeL]LDKK([AEEA-AEEA-γGlu-C18 diacid])AQ[Aib]AFIEYLLE[Aib]GPSSGEPPPSGS-NH2 [Example 166] ?
a: rule not met

q: And the next one, H-Y[Aib]QGT[αMePhe(2-F)]TSD[4Pal][αMeS]I[αMeL]LD[Orn]K([γGlu-γGlu-C18 diacid])AQ[αMe4Pal]EFI[dE][αMeY]LIEGGPSSGEPPPSGGGE-NH2 [Example 744] ?
a: rule met
